Test system: Liver
methodSummary: AUC (0 to last) in Sprague-Dawley rat liver assessed as triphosphate metabolite level at 50 mg/kg, po administered as single dose
Format: ADME, organism-based
Parameters: time 0 - last, dose 50 mg/kg, route oral
conditionsUsed: in vivo
quantityName: AUClast (ng·h/mL)

CC[C@H](NP(=O)(OC[C@H]1O[C@@H](n2ccc(=O)[nH]c2=O)[C@@]2(CCO2)[C@@H]1O)Oc1ccccc1)C(=O)OCc1ccccc1 (mixture of isomers): 1108
CCCCOC(=O)[C@H](C)NP(=O)(OC[C@H]1O[C@@H](n2ccc(=O)[nH]c2=O)[C@@]2(CCO2)[C@@H]1O)Oc1ccccc1 (some centres undefined): 9871
C[C@H](NP(=O)(OC[C@H]1O[C@@H](n2ccc(=O)[nH]c2=O)[C@@]2(CCO2)[C@@H]1O)Oc1cccc2ccccc12)C(=O)OCc1ccccc1 (mixture of isomers): 8427
C[C@H](NP(=O)(OC[C@H]1O[C@@H](n2ccc(=O)[nH]c2=O)[C@@]2(CCO2)[C@@H]1O)Oc1ccccc1)C(=O)OCc1ccccc1 (mixture of isomers): 3263
